Origin of the recorded values: patent US8546381B2

measuredOn: human recombinant adrenergic α2B receptor (Homo sapiens)
Construct: expressed in transfected cells; host or cells: CHO-K1 cells
Sequence (P18089 whole entry): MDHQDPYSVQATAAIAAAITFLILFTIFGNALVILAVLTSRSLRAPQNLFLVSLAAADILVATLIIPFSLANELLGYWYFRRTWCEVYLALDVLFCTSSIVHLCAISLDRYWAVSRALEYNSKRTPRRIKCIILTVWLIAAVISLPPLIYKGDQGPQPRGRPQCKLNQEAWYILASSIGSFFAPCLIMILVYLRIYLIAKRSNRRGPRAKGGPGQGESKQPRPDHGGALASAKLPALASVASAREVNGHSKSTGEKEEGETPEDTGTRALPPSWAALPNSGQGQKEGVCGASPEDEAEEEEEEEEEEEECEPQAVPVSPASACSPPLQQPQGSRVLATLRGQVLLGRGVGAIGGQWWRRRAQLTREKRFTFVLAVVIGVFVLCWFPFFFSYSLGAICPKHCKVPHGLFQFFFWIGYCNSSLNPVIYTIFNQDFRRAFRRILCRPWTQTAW
protocol: Adrenergic α2B radioligand binding ([3H]Rauwolscine)
protocolConditions: 1 μM; read-out: Adrenergic α2B, inhibition of ligand binding (1 μM)
assayReadout: inhibition at 1 µM (%)
// return numeric value only (unit: %, not printed)

{"columns": ["molecule", "assayValue"],
 "data": [
  ["Cc1ccc2c(c1)c1c(n2CCc2ccc(F)cc2)CC2CCC1N2C (stereo not shown) [Compound 62]", 104],
  ["Cc1ccc2c(c1)c1c(n2CCc2ccc(C)nc2)CC2CCC1N2C (stereo not shown) [Compound 32]", 82],
  ["CN1[C@H]2CC[C@@H]1c1c(n(CCc3ccc(F)cc3)c3ccc(F)cc13)C2 [Compound 95]", 36],
  ["CN1[C@@H]2CC[C@H]1c1c(n(CC(C)(O)c3ccc(F)cc3)c3ccccc13)C2 (stereo partly shown) [Compound 99]", 92],
  ["CCOC(=O)CCn1c2c(c3cc(Cl)ccc31)C1CCC(C2)N1C (stereo not shown) [Compound 70]", 51],
  ["CN1C2CCC1c1c(n(CCc3ccc(F)cc3)c3ccc(F)cc13)C2 (stereo not shown) [Compound 35]", 110],
  ["COc1ccc(CCn2c3c(c4cc(C)ccc42)C2CCC(C3)N2C)cc1 (stereo not shown) [Compound 83]", 94],
  ["Cc1ccc2c(c1)c1c(n2CCc2ccccc2)CC2CCCC1N2C (stereo not shown) [Compound 56]", 100]
]}

Input line: inhibition at 1 µM of C/C(=C\n1c2c(c3cc(C)ccc31)C1CCC(C2)N1C)c1ccc(Cl)cc1Cl (stereo not shown) [Compound 163] on human recombinant adrenergic α2B receptor (Homo sapiens)?
Output line: 104

Input line: Then Cc1ccc(CCn2c3c(c4cc(Cl)ccc42)C2CCC(C3)N2C)cc1 (stereo not shown) [Compound 61] ?
Output line: 96

Input line: Then COc1ccc(/C(C)=C/n2c3c(c4cc(Cl)ccc42)C2CCC(C3)N2C)cc1F (stereo not shown) [Compound 136] ?
Output line: 87

Input line: Then CN1C2CCC1c1c(n(CCC(=O)N3CCNCC3)c3ccc(Cl)cc13)C2 (stereo not shown) [Compound 9] ?
Output line: -15

Input line: Then CC(=O)N1CCN(C(=O)CCn2c3c(c4cc(Cl)ccc42)C2CCC(C3)N2C)CC1 (stereo not shown) [Compound 8] ?
Output line: -9
